# Experimental Details: Half life in Sprague-Dawley rat at 1 mg/kg, iv measured upto 24 hrs by LC-MS/MS analysis
# Type: ADME, organism-based
# Stated Conditions: in vivo
Test Readout: half-life (h)
Give bare numbers, in h.

What value of measured half-life is listed for NC[C@H]1CC[C@H](C(=O)O)CC1 [TRANEXAMIC ACID] ?
1.28

* * *

# Experimental Details: Toxicity in beagle dog assessed as no observed adverse effect level (NOAEL) treated for 14 days
# Set-up: species or system Canis lupus familiaris
# Stated Conditions: in vivo, time 14 day
Test Readout: NOAEL at 336 h (mg/kg)
Numbers only, in mg/kg.

What value of measured NOAEL at 336 h is listed for Cl.O=P(O)(O)c1ccc2c(n1)CCNC2 ?
70
